Origin of the recorded values: patent US5814622A

- System: human plasma (activated cephalin time)
- run.description: Anticoagulant activity: activated cephalin time (ACT) in human plasma
- Type: biochemical
- condition.parameters: 37° C., 2 min preincubation
Let's look at some molecules and their measured ACT Ctt2 (concentration which multiplies the coagulation time by 2).
Give just the numeric value; µM need not be written.

**Q:** Hello, I am looking for reported ACT Ctt2 (concentration which multiplies the coagulation time by 2) with human plasma (activated cephalin time) for COC12CCC(c3cccc(C(=O)N[C@@H](CCCNC(=N)N)B(O)O)c3)(CC1)CC2.Cl [Ex. 51] . Could you help?
**A:** 0.84

**Q:** API: value(readout= ACT Ctt2 (concentration which multiplies the coagulation time by 2), system= human plasma (activated cephalin time), query= N=C(N)NCCC[C@H](NC(=O)C1(C(=O)NCCc2ccccc2)CCCC1)B(O)O.O=S(=O)(O)c1ccccc1 [Ex. 83] )
**A:** 0.56

**Q:** Provide value of ACT Ctt2 (concentration which multiplies the coagulation time by 2) for this record tested with human plasma (activated cephalin time): COC12CCC(c3ccc(C(=O)N[C@@H](CCCNC(=N)N)B(O)O)cc3)(CC1)CC2.Cl [Ex. 3]
**A:** 1.25

**Q:** Record COc1cccc(CCNC(=O)C2(C(=O)N[C@@H](CCCNC(=N)N)B(O)O)CCCC2)c1.O=S(=O)(O)c1ccccc1 [Ex. 94] : what is its ACT Ctt2 (concentration which multiplies the coagulation time by 2) with human plasma (activated cephalin time)?
**A:** 1.77

###

- System: human plasma (activated cephalin time)
- run.description: Anticoagulant activity: activated cephalin time (ACT) in human plasma
- Type: biochemical
- condition.parameters: 37° C., 2 min preincubation
result.type: ACT Ctt2 (concentration which multiplies the coagulation time by 2) (µM)
Numeric only. Scale: µM

{"compound.string": "Cl.N=C(N)NCCC[C@H](NC(=O)c1ccc(C23CCC(O)(CC2)CC3)cc1)B(O)O", "recorded.number": 0.78}
{"compound.string": "COc1ccc(CCNC(=O)C2(C(=O)N[C@@H](CCCNC(=N)N)B(O)O)CCCC2)cc1OC", "recorded.number": 1.67}
{"compound.string": "N=C(N)NCCC[C@H](NC(=O)C1(C(=O)NCc2ccccc2)CCCC1)B(O)O.O=S(=O)(O)c1ccccc1", "recorded.number": 1.58}
{"compound.string": "Cl.N=C(N)NCCC[C@H](NC(=O)c1cccc(C23CCC(O)(CC2)CC3)c1)B(O)O", "recorded.number": 0.56}

Below: the item to evaluate.
**Q:** Need ACT Ctt2 (concentration which multiplies the coagulation time by 2), item `Cl.N=C(N)NCCC[C@H](NC(=O)c1ccc(C23CCC(Cl)(CC2)CC3)cc1)B(O)O`
**A:** 3.13

###

Values of pIC50 reported for Plasmin (Homo sapiens, UniProt P00747) appear below.
In textbook form, pIC50 equals minus log to base ten of the concentration in mol/L.

The cases that follow already have their pIC50 on record.
{"compound": "N=C(N)NCCC[C@H](NC(=O)C1(C(=O)NCc2ccccc2)CCCC1)B(O)O.O=S(=O)(O)c1ccccc1 [Ex. 22, benzenesulfonate]", "assayed.target": "Plasmin (Homo sapiens, UniProt P00747)", "result.type": "pIC50", "recorded.number": 5.06}
{"compound": "COC12CCC(c3ccc(C(=O)N[C@@H](CCCNC(=N)N)B(O)O)cc3)(CC1)CC2.Cl [Ex. 3, hydrochloride]", "assayed.target": "Plasmin (Homo sapiens, UniProt P00747)", "result.type": "pIC50", "recorded.number": 5.71}
{"compound": "Cl.N=C(N)NCCC[C@H](NC(=O)c1ccc(C23CCC(Cl)(CC2)CC3)cc1)B(O)O [Ex. 6, hydrochloride]", "assayed.target": "Plasmin (Homo sapiens, UniProt P00747)", "result.type": "pIC50", "recorded.number": 5.69}
{"compound": "Cl.N=C(N)NCCC[C@H](NC(=O)c1cccc(C23CCC(O)(CC2)CC3)c1)B(O)O [Ex. 69, hydrochloride]", "assayed.target": "Plasmin (Homo sapiens, UniProt P00747)", "result.type": "pIC50", "recorded.number": 6.16}
{"compound": "COC12CCC(c3cccc(C(=O)N[C@@H](CCCNC(=N)N)B(O)O)c3)(CC1)CC2.Cl [Ex. 51, hydrochloride]", "assayed.target": "Plasmin (Homo sapiens, UniProt P00747)", "result.type": "pIC50", "recorded.number": 6.27}
{"compound": "COc1cccc(CCNC(=O)C2(C(=O)N[C@@H](CCCNC(=N)N)B(O)O)CCCC2)c1.O=S(=O)(O)c1ccccc1 [Ex. 94, benzenesulfonate]", "assayed.target": "Plasmin (Homo sapiens, UniProt P00747)", "result.type": "pIC50", "recorded.number": 5.39}
{"compound": "Cl.N=C(N)NCCC[C@H](NC(=O)c1ccc(C23CCC(O)(CC2)CC3)cc1)B(O)O [Ex. 12, hydrochloride]", "assayed.target": "Plasmin (Homo sapiens, UniProt P00747)", "result.type": "pIC50", "recorded.number": 5.68}

Here is another compound to look at.
**Q:** Bench note: what pIC50 did N=C(N)NCCC[C@H](NC(=O)C1(C(=O)NCCc2ccccc2)CCCC1)B(O)O.O=S(=O)(O)c1ccccc1 [Ex. 83, benzenesulfonate] show?
**A:** 5.16
